Recorded values, source ChEMBL document CHEMBL4118276.

target: NAD-dependent protein deacylase sirtuin-5, mitochondrial (Homo sapiens); assay: Inhibition of human SIRT5 expressed in Escherichia coli BL21 at 250 uM using H3K9AcWW as substrate preincubated for 15 mins followed by substrate addition measured after 1 hr by HPLC analysis relative to control
Sequence (Q9NXA8 37-310 limits assumed): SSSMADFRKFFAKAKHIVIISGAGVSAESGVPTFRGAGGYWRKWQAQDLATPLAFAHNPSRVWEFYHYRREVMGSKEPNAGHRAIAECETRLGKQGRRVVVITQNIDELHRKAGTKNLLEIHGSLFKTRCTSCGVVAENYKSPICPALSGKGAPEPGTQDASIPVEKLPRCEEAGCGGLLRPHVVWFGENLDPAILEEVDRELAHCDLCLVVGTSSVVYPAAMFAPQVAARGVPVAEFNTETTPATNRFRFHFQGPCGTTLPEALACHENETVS
Residues, ends and D or L forms follow the SMILES beside them. *: point of attachment. X4 = O=C(O)CCNC(=O)CCC*; X5 = NC(=O)CCC*
observedProperty: inhibition

Can you look up inhibition on NAD-dependent protein deacylase sirtuin-5, mitochondrial (Homo sapiens) for C[C@H](NC(=O)[C@@H](NC(=O)[C@H](CCC(N)=O)NC(=O)[C@@H](N)CCCCN)[C@@H](C)O)C(=O)N[C@@H](CCCNC(=N)N)C(=O)N[C@@H](CSCCCC(N)=O)C(=O)N[C@@H](CO)C(=O)N[C@H](C(=O)NCC(=O)NCC(=O)N[C@@H](CCCCN)C(=O)O)[C@@H](C)O (H-KQTARC(X5)STGGK-OH) ? 18%

New cases:
Can you look up inhibition on NAD-dependent protein deacylase sirtuin-5, mitochondrial (Homo sapiens) for C[C@H](NC(=O)[C@@H](NC(=O)[C@H](CCC(N)=O)NC(=O)[C@@H](N)CCCCN)[C@@H](C)O)C(=O)N[C@@H](CCCNC(=N)N)C(=O)N[C@@H](CSCCCC(=O)NCCC(=O)O)C(=O)N[C@@H](CO)C(=O)N[C@H](C(=O)NCC(=O)NCC(=O)N[C@@H](CCCCN)C(=O)O)[C@@H](C)O (H-KQTARC(X4)STGGK-OH) ? 15%
